- subject.of.test: hMC3-R (Homo sapiens)
- Construct: expressed in transfected cells
- Sequence (P41968 whole entry): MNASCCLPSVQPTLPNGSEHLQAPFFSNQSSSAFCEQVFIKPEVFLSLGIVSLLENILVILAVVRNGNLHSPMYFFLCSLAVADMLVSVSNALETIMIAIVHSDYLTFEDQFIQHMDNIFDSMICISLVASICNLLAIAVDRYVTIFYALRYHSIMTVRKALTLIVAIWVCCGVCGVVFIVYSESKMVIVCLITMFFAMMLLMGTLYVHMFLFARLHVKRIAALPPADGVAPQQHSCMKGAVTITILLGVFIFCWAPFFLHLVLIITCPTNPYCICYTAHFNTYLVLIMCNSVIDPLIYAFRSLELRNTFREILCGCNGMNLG
- assay.explanation: competitive inhibition binding assay, 125I-NDP-alpha-MSH, hMC3-R membranes
- assay.context: 1 μM test peptide; 0.4 nM 125I-NDP-alpha-MSH; hMC3-R membranes
Square brackets hold non-standard residues; d marks the D form. Ends that are not written are not given here. Nle = CCCC[C@H](N)C(=O)O
Assign class by % Inhibition at 1 μM at Melanocortin Receptor 3: not lower than 80% means y; lower than 80% means n.

# substance, label
rows = [
    ("Tyr-Val-Nle-Gly-His-D-Phe-Cys-Arg-Trp-Asp-Arg-Phe-NH2 (YV[Nle]GH[dF]CRWDRF-NH2; also: Re complex) [3-6]", "n"),
    ("Tyr-Val-Cys-Nle-Gly-His-D-Phe-Arg-Trp-Asp-Arg-Phe-NH2 (YVC[Nle]GH[dF]RWDRF-NH2; also: Re complex) [3-11]", "y"),
    ("Ac-Ser-Tyr-Ser-Nle-Glu-His-Cys-Phe-Arg-Trp-Gly-Lys-Pro-Val-NH2 (Ac-SYS[Nle]EHCFRWGKPV-NH2; not fully specified (bridges); printed as Ac-Ser-Tyr-Ser-Nle-Glu-His-Cys-Phe-Arg-Trp-Gly-Lys-Pro-Val-NH2; numbers in words are those of the source; also: oxorhenium(V) N3S1 chelate (Re(V)=O)) [1-8]", "n"),
    ("Ac-Ser-Tyr-D-Cys-Ser-Nle-Glu-His-Phe-Arg-Trp-Gly-Lys-Pro-Val-NH2 (Ac-SY[dC]S[Nle]EHFRWGKPV-NH2; not fully specified (bridges); printed as Ac-Ser-Tyr-D-Cys-Ser-Nle-Glu-His-Phe-Arg-Trp-Gly-Lys-Pro-Val-NH2; numbers in words are those of the source; also: oxorhenium(V) N3S1 chelate (Re(V)=O)) [2-12]", "n"),
    ("Ac-Ser-Tyr-Ser-Nle-Glu-His-Phe-D-Cys-Arg-Trp-Gly-Lys-Pro-Val-NH2 ({Ac-Ser-Tyr-Ser-Nle-Glu-H2N}-F[dC]RWGKPV-NH2; numbers in words are those of the source; also: oxorhenium(V) N3S1 chelate via Cys (Re(V)=O)) [2-7]", "n"),
    ("Ac-Ser-Tyr-Ser-D-Cys-Nle-Glu-His-Phe-Arg-Trp-Gly-Lys-Pro-Val-NH2 (Ac-SYS[dC][Nle]EHFRWGKPV-NH2; not fully specified (bridges); printed as Ac-Ser-Tyr-Ser-D-Cys-Nle-Glu-His-Phe-Arg-Trp-Gly-Lys-Pro-Val-NH2; numbers in words are those of the source; also: oxorhenium(V) N3S1 chelate (Re(V)=O)) [2-11]", "n"),
    ("Tyr-Val-Nle-Gly-His-D-Phe-Arg-Trp-Cys-Asp-Arg-Phe-NH2 (YV[Nle]GH[dF]RWCDRF-NH2; also: Re complex) [3-4]", "y"),
    ("Tyr-Val-Nle-Cys-His-D-Phe-Arg-Trp-Asp-Arg-Phe-NH2 (YV[Nle]CH[dF]RWDRF-NH2; not fully specified (bridges); printed as Tyr-Val-Nle-Cys-His-D-Phe-Arg-Trp-Asp-Arg-Phe-NH2; numbers in words are those of the source; also: oxorhenium(V) N3S1 chelate complex (Re=O)) [5-8]", "y"),
    ("Tyr-Val-Nle-Cys-Gly-His-Phe-Arg-Trp-Asp-Arg-Phe-NH2 (YV[Nle]CGHFRWDRF-NH2; not fully specified (bridges); printed as Tyr-Val-Nle-Cys-Gly-His-Phe-Arg-Trp-Asp-Arg-Phe-NH2; numbers in words are those of the source; also: oxorhenium(V) N3S1 chelate (Re=O) with Cys) [4-9]", "n"),
    ("Tyr-Val-Nle-Gly-His-D-Phe-Arg-Trp-Cys-Arg-Phe-NH2 (YV[Nle]GH[dF]RWCRF-NH2; numbers in words are those of the source; also: oxorhenium(V) N3S1 chelate complex (Re=O)) [5-3]", "y"),
    ("Ac-Ser-Tyr-Ser-Nle-Glu-His-Phe-Arg-Cys-Trp-Gly-Lys-Pro-Val-NH2 (Ac-SYS[Nle]EHFRCWGKPV-NH2; not fully specified (bridges); printed as Ac-Ser-Tyr-Ser-Nle-Glu-His-Phe-Arg-Cys-Trp-Gly-Lys-Pro-Val-NH2; numbers in words are those of the source; also: oxorhenium(V) N3S1 chelate (Re(V)=O)) [1-6]", "n"),
    ("Tyr-Val-Nle-Gly-His-Phe-Arg-Cys-Trp-Asp-Arg-Phe-NH2 (YV[Nle]GHFRCWDRF-NH2; numbers in words are those of the source; also: oxorhenium(V) N3S1 chelate (Re=O) with Cys) [4-5]", "y"),
]
